Each entry below lists one item and its recorded OD450 at 0.5487 nM value.
TGT: T1, LAG3 Protein, Human, Recombinant (His Tag) (Sino Biological Catalog No. 16498-H08H) (human, UniProt P18627 23-450)
T1 construct: Bought protein; also called hLAG3-His; LAG3-His; not shown: His tag
T1 sequence (looked up): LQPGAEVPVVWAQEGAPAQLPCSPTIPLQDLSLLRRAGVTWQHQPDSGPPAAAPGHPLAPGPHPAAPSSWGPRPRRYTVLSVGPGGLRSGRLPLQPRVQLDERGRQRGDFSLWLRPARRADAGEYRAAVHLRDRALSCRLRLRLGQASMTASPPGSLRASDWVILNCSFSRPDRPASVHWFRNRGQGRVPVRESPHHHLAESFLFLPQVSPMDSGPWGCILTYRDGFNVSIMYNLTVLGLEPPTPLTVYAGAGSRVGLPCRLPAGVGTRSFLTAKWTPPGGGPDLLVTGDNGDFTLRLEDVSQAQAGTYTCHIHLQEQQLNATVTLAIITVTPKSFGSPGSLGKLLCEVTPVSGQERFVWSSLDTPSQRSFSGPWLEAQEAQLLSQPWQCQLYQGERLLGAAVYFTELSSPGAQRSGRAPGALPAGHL
TEST_METHOD_NOTES: ELISA, coated hLAG3-His
Method: Plates were coated with 100 µL per well of Coating Solution, and then covered, and incubated overnight (12-18 hours) at 2-8° C. The wells were aspirated and washed 1 time with >200 µL of Wash buffer per well, inverted and tapped on absorbent paper to remove excess liquid. […] The primary antibody solution was diluted with Blocking buffer. […] Absorbance at 450 nm was measured within 30 minutes of adding Stop solution. Results were calculated using a log-log or 4-parameter curve fit.
RESULT_TYPE: OD450 at 0.5487 nM

INSERT INTO assay_data (binder, result_type, reported_result) VALUES
  ('sdAb No. 25 (VHH, Fc of the tested form not described; also called sdAb 25; sdAb #25; not shown: Fc part implied by anti-human Fc capture and anti-human IgG Fc detection) VHH: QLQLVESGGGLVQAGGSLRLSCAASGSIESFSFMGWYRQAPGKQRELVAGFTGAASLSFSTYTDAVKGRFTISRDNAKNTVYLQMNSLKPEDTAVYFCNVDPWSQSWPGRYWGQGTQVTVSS', 'OD450 at 0.5487 nM', 0.06),
  ('sdAb No. 27-H1B3 (VHH, Humanized sdAb No. 27-H1; not shown: Fc part implied by anti-human IgG Fc detection) VHH: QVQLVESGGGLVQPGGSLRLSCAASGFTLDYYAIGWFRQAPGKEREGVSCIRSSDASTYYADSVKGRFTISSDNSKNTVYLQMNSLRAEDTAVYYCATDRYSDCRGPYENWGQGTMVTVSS', 'OD450 at 0.5487 nM', 0.212),
  ('sdAb No. 25-B6 (VHH, Humanized sdAb No. 25; not shown: Fc part implied by anti-human IgG1 Fc detection) VHH: QLQLVESGGGLVKPGGSLRLSCAASGSIESFSFMGWYRQAPGKQREWVAGFTGAASLSFSTYTDAVKGRFTISRDNAKNSVYLQMNSLRAEDTAVYYCNVDPWSQSWPGRYWGQGTTVTVSS', 'OD450 at 0.5487 nM', 0.037),
  ('sdAb No. 25-B7 (VHH, Humanized sdAb No. 25; not shown: Fc part implied by anti-human IgG Fc detection) VHH: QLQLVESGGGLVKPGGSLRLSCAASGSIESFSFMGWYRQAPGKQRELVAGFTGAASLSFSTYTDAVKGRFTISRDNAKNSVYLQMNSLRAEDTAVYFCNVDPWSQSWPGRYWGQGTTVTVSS', 'OD450 at 0.5487 nM', 0.132);

Numbers sourced from patent US20230303690A1.
